# target-entity: Neuropeptide Y receptor type 1 (Rattus norvegicus, UniProt P21555)
# Sequence (P21555 whole entry): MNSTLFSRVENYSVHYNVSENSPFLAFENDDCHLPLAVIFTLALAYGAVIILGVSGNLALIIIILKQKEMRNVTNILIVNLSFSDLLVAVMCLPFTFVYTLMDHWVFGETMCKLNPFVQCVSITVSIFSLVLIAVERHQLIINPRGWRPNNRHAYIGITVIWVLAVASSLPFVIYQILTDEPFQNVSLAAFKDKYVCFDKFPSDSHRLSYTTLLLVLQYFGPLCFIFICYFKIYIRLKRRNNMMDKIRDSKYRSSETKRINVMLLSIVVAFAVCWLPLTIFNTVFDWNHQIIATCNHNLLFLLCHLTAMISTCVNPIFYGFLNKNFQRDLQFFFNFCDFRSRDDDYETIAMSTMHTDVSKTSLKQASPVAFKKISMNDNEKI
# assay-details: Functional response of NPY to inhibit forskolin-stimulated cAMP in cells stably transfected with Neuropeptide Y receptor type 1
property-label: Ki (µM)
Give the number; µM is assumed, so skip it.

Specify reported Ki for the molecule shown: O=[N+]([O-])c1ccccc1S(=O)(=O)NC[C@H]1CC[C@H](CNCC2CCc3ccccc3C2)CC1 (stereo partly specified)
22
